# Test system: HepG2
# TEST DESCRIPTION: cytotoxicity call (relative viability < 0.9)
# EXPERIMENTAL CONTEXT: 10 µM
The campaign covered roughly 39,000 compounds. About 3,300 (8.5%) were called active. The sample holds actives, similar compounds and a random draw of the others, so the mix is not that of the screen.

SMI: C[C@@H]1CN([C@@H](C)CO)C(=O)c2cc(NS(=O)(=O)c3ccc(Cl)cc3)ccc2O[C@@H](C)CCCCO[C@@H]1CN(C)C(=O)Nc1ccc(C(F)(F)F)cc1
cytotoxicity call: inactive
--
SMI: O=C(CCCCCCC(=O)Nc1ccc([C@H]2C[C@H](c3ccccc3)O[C@H](c3ccc(Oc4ccccc4)cc3)O2)cc1)NO
cytotoxicity call: inactive
--
SMI: C[C@@H]1CN([C@H](C)CO)C(=O)c2cc(NS(=O)(=O)c3ccc(Cl)cc3)ccc2O[C@H]1CN(C)C(=O)Nc1ccc(C(F)(F)F)cc1
cytotoxicity call: inactive
--
SMI: C[C@@H]1CN([C@@H](C)CO)C(=O)c2cc(NC(=O)NC3CCCCC3)ccc2O[C@@H](C)CCCCO[C@@H]1CN(C)Cc1ccc(C(F)(F)F)cc1
cytotoxicity call: inactive
--
SMI: C[C@H]1CCCCO[C@H](CN(C)C(=O)Nc2ccc(C(F)(F)F)cc2)[C@@H](C)CN([C@@H](C)CO)C(=O)c2cc(NS(=O)(=O)c3ccc(Cl)cc3)ccc2O1
cytotoxicity call: inactive
